# Tested on: 616215-338-R-J1-PDC tumor spheroids, viability;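 also: spheroids exposed to agents for 7 days before readout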
# TEST_PROTOCOL: Anticancer human tumor 616215-338-R-J1-PDC patient-derived colon adenocarcinoma cell line growth inhibition [GQUAD]
# RUN_CONDITIONS: curve of first compound; second compound 3.16 µM; spheroids with HUVEC and MSC
pIC50: −log10 of the molar value.
We use 6 as the dividing line for pIC50: on or above the line is 1, below is -1.

Enquiry: Is pIC50 at least 6? Consider O=C(NO)c1cnc(N2CCN(S(=O)(=O)c3ccc4ccccc4c3)CC2)nc1 + Cc1[nH]c2ccc(F)cc2c1-c1nc2c3cccnc3c3ncccc3c2[nH]1
Return: 1
